B1: Formin-binding protein 4, residues 200 to 261; numbered along this chain, Q8N3X1 (parent)
chain: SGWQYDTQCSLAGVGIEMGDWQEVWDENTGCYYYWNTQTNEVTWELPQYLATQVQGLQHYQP

variants of: B1; assay: abundance fitness (aPCA) (normalised: wild type 0, dead -1); higher = more abundant; growth selection in yeast, the domain comes from the species named; conditions: Homo sapiens
Readout name: abundance fitness
Numbers only.

W35H ... 0.166

Could you report abundance fitness for every entry in the following list?
1. T37V
2. L11I
3. Y33M
4. N28I
5. Q38T
6. N40M

Response given:
-0.058
-0.061
-0.316
0.281
0.254
-0.298

Could you report abundance fitness for every entry in the following list?
1. W3E
2. G15T

Response given:
1: -0.376; 2: -0.099
